System: Setaria viridis
Assay: Pre-emergence herbicidal activity against Setaria viridis (green foxtail) assessed as growth inhibition at 450 ai g/ha after 20 days by green house test
Format: functional
value-type: growth inhibition (GI) (%)
Answer in %, number only, no unit symbol.

Previously resolved entries follow.
[[record]]
molecule = "COP(=O)(OC)C(C)OC(=O)COc1ccc(Cl)cc1C (stereo not drawn)"
value_type = "growth inhibition (GI)"
obs_value = 0

[[record]]
molecule = "COP(=O)(COC(=O)COc1cccc(C(F)(F)F)c1)OC"
value_type = "growth inhibition (GI)"
obs_value = 35


-- ask Quickly give me recorded growth inhibition (GI) for COP(=O)(COC(=O)COc1ccc(Cl)cc1Cl)OC
-- reply 5

* * *

Assay: Toxicity against Oryza sativa (rice) assessed as growth inhibition at 225 ai g/ha post-emergent application measured after 20 days by green house crop selectivity test
Assay type: organism-based
Conditions: in vivo, read-out: GI
value-type: inhibition at 480 h (%)
Answer in %, number only, no unit symbol.

-- ask Quickly give me recorded inhibition at 480 h for COP(=O)(OC)C(C)OC(=O)COc1ccc(Cl)cc1Cl (stereo unspecified)
-- reply 0

* * *

Target: Pyruvate dehydrogenase complex (Pisum sativum, UniProt P52902+P52904)
Sequence (P52902 whole entry): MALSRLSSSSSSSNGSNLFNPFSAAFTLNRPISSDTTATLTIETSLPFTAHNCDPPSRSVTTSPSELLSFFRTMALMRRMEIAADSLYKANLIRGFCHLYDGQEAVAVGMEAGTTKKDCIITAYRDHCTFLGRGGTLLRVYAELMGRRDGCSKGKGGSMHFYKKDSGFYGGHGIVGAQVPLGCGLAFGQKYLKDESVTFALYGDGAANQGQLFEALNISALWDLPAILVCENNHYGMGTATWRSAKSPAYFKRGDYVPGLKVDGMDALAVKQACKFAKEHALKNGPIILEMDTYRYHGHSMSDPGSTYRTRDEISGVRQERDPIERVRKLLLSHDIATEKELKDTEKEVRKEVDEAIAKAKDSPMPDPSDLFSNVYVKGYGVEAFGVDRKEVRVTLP
Sequence (P52904 whole entry): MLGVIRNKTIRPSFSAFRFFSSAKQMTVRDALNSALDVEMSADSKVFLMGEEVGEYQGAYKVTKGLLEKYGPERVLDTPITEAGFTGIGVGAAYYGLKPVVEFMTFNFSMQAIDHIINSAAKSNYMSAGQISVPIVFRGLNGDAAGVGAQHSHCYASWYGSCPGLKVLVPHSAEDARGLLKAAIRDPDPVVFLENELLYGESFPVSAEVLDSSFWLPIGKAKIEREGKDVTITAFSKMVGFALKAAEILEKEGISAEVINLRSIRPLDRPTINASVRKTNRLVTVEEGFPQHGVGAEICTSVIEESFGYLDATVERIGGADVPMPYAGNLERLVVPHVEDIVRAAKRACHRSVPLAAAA
Assay: Inhibition of PDHc in Pisum sativum Zhongwan-2 (pea) shoot mitochondria assessed as decrease in rate of NADH formation using sodium pyruvate as substrate preincubated for 25 min before substrate addition measured after 1 min by spectrophotometric assay
Assay type: protein-complex assay, Lathyrus oleraceus
Catalogue of IC50 values
Answer in µM, number only, no unit symbol.

[[record]]
compound = "COP(=O)(COC(=O)COc1cccc(C(F)(F)F)c1)OC"
value_units = "µM"
obs_value = 442


-- ask Quickly give me recorded IC50 for COP(=O)(OC)C(C)OC(=O)COc1ccc(Cl)cc1Cl (stereo not drawn) [CLACYFOS]
-- reply 18.2

* * *

Catalogue of growth inhibition (GI) values
Test system: Medicago sativa
Experiment: Pre-emergence herbicidal activity against Medicago sativa (alfalfa) assessed as growth inhibition at 1500 ai g/ha after 20 days by green house test
Type: functional
Answer in %, number only, no unit symbol.

Previously resolved entries follow.
[[record]]
molecule = "COP(=O)(OC)C(OC(=O)COc1ccc(Cl)cc1)c1ccccc1O (stereo not given)"
value_type = "growth inhibition (GI)"
obs_value = 90

[[record]]
molecule = "O=C(O)COc1ccc(Cl)cc1Cl"
value_type = "growth inhibition (GI)"
obs_value = 90

[[record]]
molecule = "COP(=O)(OC)C(C)OC(=O)COc1ccc(F)c(Cl)c1 (stereo not given)"
value_type = "growth inhibition (GI)"
obs_value = 75

[[record]]
molecule = "COP(=O)(OC)C(OC(=O)COc1cccc(C)c1C)c1ccccc1 (stereo not given)"
value_type = "growth inhibition (GI)"
obs_value = 75

[[record]]
molecule = "COP(=O)(OC)C(OC(=O)COc1ccc(F)c(Cl)c1)c1ccccc1 (stereo not given)"
value_type = "growth inhibition (GI)"
obs_value = 75

[[record]]
molecule = "COP(=O)(OC)C(OC(=O)COc1ccc(Cl)cc1)c1cccc([N+](=O)[O-])c1 (stereo not given)"
value_type = "growth inhibition (GI)"
obs_value = 90

[[record]]
molecule = "COP(=O)(OC)C(OC(=O)COc1ccc(Cl)cc1Cl)c1cccc([N+](=O)[O-])c1 (stereo not given)"
value_type = "growth inhibition (GI)"
obs_value = 90


-- ask Quickly give me recorded growth inhibition (GI) for COP(=O)(OC)C(OC(=O)COc1ccc(F)cc1F)c1ccccc1 (stereo not given)
-- reply 50

* * *

Catalogue of growth inhibition (GI) values
Tested on: Amaranthus spinosus
Assay: Pre-emergence herbicidal activity against Amaranthus spinosus assessed as growth inhibition at 450 ai g/ha after 20 days by green house test
Format: functional
Answer in %, number only, no unit symbol.

[[record]]
compound = "COP(=O)(OC)C(OC(=O)COc1ccc(Cl)cc1C)c1cccc([N+](=O)[O-])c1 (stereo not drawn)"
assayed_target = "Amaranthus spinosus"
obs_value = 0

[[record]]
compound = "COP(=O)(COC(=O)COc1ccc(Cl)cc1Cl)OC"
assayed_target = "Amaranthus spinosus"
obs_value = 52.5

[[record]]
compound = "O=C(O)COc1ccc(Cl)cc1Cl"
assayed_target = "Amaranthus spinosus"
obs_value = 0

[[record]]
compound = "CCOP(=O)(OCC)C(C)OC(=O)COc1ccc(Cl)cc1Cl (stereo not drawn)"
assayed_target = "Amaranthus spinosus"
obs_value = 50


-- ask Report growth inhibition (GI) on Amaranthus spinosus for this entry: COP(=O)(OC)C(OC(=O)COc1ccc(Cl)cc1Cl)c1ccccc1 (stereo not drawn)
-- reply 0

-- ask Report growth inhibition (GI) on Amaranthus spinosus for this entry: COP(=O)(OC)C(C)OC(=O)COc1ccc(Cl)cc1C (stereo not drawn)
-- reply 30

-- ask Report growth inhibition (GI) on Amaranthus spinosus for this entry: COP(=O)(OC)C(C)OC(=O)COc1ccc(Cl)cc1Cl (stereo not drawn)
-- reply 0

-- ask Report growth inhibition (GI) on Amaranthus spinosus for this entry: COP(=O)(COC(=O)COc1cccc(C(F)(F)F)c1)OC
-- reply 0

* * *

Catalogue of IC50 values
Biological target: Pyruvate dehydrogenase complex (Vigna radiata var. radiata)
Test: Inhibition of PDHc in Vigna radiata var. radiata VC2778A shoot mitochondria assessed as decrease in rate of NADH formation using sodium pyruvate as substrate preincubated for 25 min before substrate addition measured after 1 min by spectrophotometric assay
Answer in µM, number only, no unit symbol.

Previously resolved entries follow.
[[record]]
compound = "COP(=O)(OC)C(C)OC(=O)COc1ccc(Cl)cc1Cl (centres undefined)"
value_units = "µM"
obs_value = 12.8

[[record]]
compound = "COP(=O)(OC)C(OC(=O)COc1ccc(Cl)cc1Cl)c1ccccc1 (centres undefined)"
value_units = "µM"
obs_value = 95.4

[[record]]
compound = "CCOP(=O)(OCC)C(C)OC(=O)COc1ccc(Cl)cc1Cl (centres undefined)"
value_units = "µM"
obs_value = 23.1


Consider now this further compound.
-- ask Quickly give me recorded IC50 for COP(=O)(COC(=O)COc1ccc(Cl)cc1Cl)OC
-- reply 19.7

* * *

Tested on: Amaranthus spinosus
Assay: Post-emergence herbicidal activity against Amaranthus spinosus assessed as growth inhibition at 75 ai g/ha after 20 days by green house test
Format: functional
Rule: growth inhibition (GI) of 60% or more gives T; anything lower gives F.

// below: answered compounds
[[record]]
compound = "CCOP(=O)(OCC)C(C)OC(=O)COc1ccc(Cl)cc1Cl (configuration not stated)"
label = "F"

[[record]]
compound = "COP(=O)(OC)C(C)OC(=O)COc1ccc(Cl)cc1Cl (configuration not stated)"
label = "T"

[[record]]
compound = "COP(=O)(COC(=O)COc1ccc(Cl)cc1Cl)OC"
label = "T"

[[record]]
compound = "COP(=O)(OC)C(OC(=O)COc1ccc(Cl)cc1C)c1cccc([N+](=O)[O-])c1 (configuration not stated)"
label = "F"

[[record]]
compound = "COP(=O)(OC)C(OC(=O)COc1ccc(Cl)cc1Cl)c1ccccc1 (configuration not stated)"
label = "T"


-- ask Reported growth inhibition (GI) reaches at least 60% for COP(=O)(COC(=O)COc1cccc(C(F)(F)F)c1)OC ?
-- reply F

* * *

Catalogue of growth inhibition (GI) values
Test system: Echinochloa crus-galli
Assay: Post-emergence herbicidal activity against Echinochloa crus-galli (barnyard grass) assessed as growth inhibition at 1500 ai g/ha after 20 days by green house test
Assay type: functional
Answer in %, number only, no unit symbol.

Previously resolved entries follow.
[[record]]
compound = "COP(=O)(OC)C(OC(=O)COc1ccc(Cl)cc1)c1cccc([N+](=O)[O-])c1 (centres undefined)"
value_type = "growth inhibition (GI)"
obs_value = 75

[[record]]
compound = "COP(=O)(OC)C(OC(=O)COc1ccc(Cl)cc1C)c1cccc([N+](=O)[O-])c1 (centres undefined)"
value_type = "growth inhibition (GI)"
obs_value = 75

[[record]]
compound = "O=C(O)COc1ccc(Cl)cc1Cl"
value_type = "growth inhibition (GI)"
obs_value = 50


-- ask Quickly give me recorded growth inhibition (GI) for COP(=O)(OC)C(OC(=O)COc1ccc(F)cc1Cl)c1cccc([N+](=O)[O-])c1 (centres undefined)
-- reply 75

-- ask Quickly give me recorded growth inhibition (GI) for COP(=O)(OC)C(OC(=O)COc1ccc(F)c(Cl)c1)C(Cl)(Cl)Cl (centres undefined)
-- reply 50

-- ask Quickly give me recorded growth inhibition (GI) for COP(=O)(OC)C(OC(=O)COc1ccccc1F)c1cccc([N+](=O)[O-])c1 (centres undefined)
-- reply 90

* * *

Tested on: Chenopodium album
Assay: Post-emergence herbicidal activity against Chenopodium album assessed as growth inhibition at 450 ai g/ha after 20 days by green house test
Assay type: functional
value-type: growth inhibition (GI) (%)
Answer in %, number only, no unit symbol.

[[record]]
compound = "COP(=O)(OC)C(C)OC(=O)COc1ccc(Cl)cc1Cl (stereo not drawn)"
value_type = "growth inhibition (GI)"
obs_value = 100

[[record]]
compound = "COP(=O)(COC(=O)COc1cccc(C(F)(F)F)c1)OC"
value_type = "growth inhibition (GI)"
obs_value = 82.5

[[record]]
compound = "COP(=O)(OC)C(C)OC(=O)COc1ccc(Cl)cc1C (stereo not drawn)"
value_type = "growth inhibition (GI)"
obs_value = 80

[[record]]
compound = "COP(=O)(OC)C(OC(=O)COc1ccc(Cl)cc1Cl)c1ccccc1 (stereo not drawn)"
value_type = "growth inhibition (GI)"
obs_value = 97.5

[[record]]
compound = "CCOP(=O)(OCC)C(C)OC(=O)COc1ccc(Cl)cc1Cl (stereo not drawn)"
value_type = "growth inhibition (GI)"
obs_value = 97.5


-- ask Quickly give me recorded growth inhibition (GI) for COP(=O)(OC)C(OC(=O)COc1ccc(Cl)cc1C)c1cccc([N+](=O)[O-])c1 (stereo not drawn)
-- reply 100

-- ask Quickly give me recorded growth inhibition (GI) for COP(=O)(COC(=O)COc1ccc(Cl)cc1Cl)OC
-- reply 100

-- ask Quickly give me recorded growth inhibition (GI) for O=C(O)COc1ccc(Cl)cc1Cl
-- reply 100
